Assay: The drug is tested on Z-024 corresponding to pig gut metagenome with ENA study accession number: PRJEB37062 and ENA sample accession number: ERS12561823 for biotransformation under anaerobic condition. The drug concentrations were measured over 9 timepoints collected between 0 and 24 hours of incubation by liquid-chromatography-coupled mass spectrometry (LC–MS); note: call rule not given here
Conditions: 2 µM

>  <compound>
CN1CCN2c3ccccc3Cc3ccccc3C2C1 (stereo not drawn)

>  <Bacterial Biotransformation>
Compound metabolized

$$$$
>  <compound>
CC(NC(C)(C)C)C(=O)c1cccc(Cl)c1 (stereo not drawn)

>  <Bacterial Biotransformation>
Compound NOT metabolized

$$$$
>  <compound>
CC(=O)O[C@H]1C(=O)[C@@]2(C)[C@H]([C@H](OC(=O)c3ccccc3)[C@]3(O)C[C@H](OC(=O)[C@H](O)[C@@H](NC(=O)c4ccccc4)c4ccccc4)C(C)=C1C3(C)C)[C@]1(OC(C)=O)CO[C@@H]1C[C@@H]2O

>  <Bacterial Biotransformation>
Compound metabolized

$$$$
>  <compound>
CN1C[C@H](C(=O)N[C@]2(C)O[C@@]3(O)[C@@H]4CCCN4C(=O)[C@H](Cc4ccccc4)N3C2=O)C[C@@H]2c3cccc4[nH]cc(c34)C[C@H]21.CS(=O)(=O)O [DIHYDROERGOTAMINE MESYLATE]

>  <Bacterial Biotransformation>
Compound metabolized

$$$$
>  <compound>
Br.CN1CCC[C@@H]1Cc1c[nH]c2ccc(CCS(=O)(=O)c3ccccc3)cc12 [ELETRIPTAN HYDROBROMIDE]

>  <Bacterial Biotransformation>
Compound NOT metabolized

$$$$
>  <compound>
CN1CCC(=C2c3ccccc3CC(=O)c3sccc32)CC1.O=C(O)/C=C/C(=O)O [KETOTIFEN FUMARATE]

>  <Bacterial Biotransformation>
Compound NOT metabolized

$$$$
>  <compound>
CCCC(C)(COC(N)=O)COC(=O)NC(C)C (stereo not drawn)

>  <Bacterial Biotransformation>
Compound metabolized

$$$$
>  <compound>
O=C(NC(Cc1cc(=O)[nH]c2ccccc12)C(=O)O)c1ccc(Cl)cc1 (stereo not drawn) [REBAMIPIDE]

>  <Bacterial Biotransformation>
Compound metabolized

$$$$
>  <compound>
CCN(C(C)=O)c1cccc(-c2ccnc3c(C#N)cnn23)c1

>  <Bacterial Biotransformation>
Compound NOT metabolized

$$$$
>  <compound>
COC1=C(OC)C(=O)C(CCCCCCCCCCO)=C(C)C1=O

>  <Bacterial Biotransformation>
Compound metabolized

$$$$
>  <compound>
CC[C@H](C)C(=O)O[C@H]1CCC=C2C=C[C@H](C)[C@H](CC[C@@H]3C[C@@H](O)CC(=O)O3)[C@H]21

>  <Bacterial Biotransformation>
Compound NOT metabolized

$$$$
>  <compound>
C#C[C@]1(OC(C)=O)CC[C@H]2[C@@H]3CCC4=C/C(=N/O)CC[C@@H]4[C@H]3CC[C@@]21CC [NORGESTIMATE]

>  <Bacterial Biotransformation>
Compound NOT metabolized

$$$$
>  <compound>
CN1[C@@H]2CC[C@H]1C[C@@H](OC(=O)[C@H](CO)c1ccccc1)C2

>  <Bacterial Biotransformation>
Compound NOT metabolized

$$$$
>  <compound>
Cc1cc(C)cc(OCC2CNC(=O)O2)c1 (stereo not drawn)

>  <Bacterial Biotransformation>
Compound NOT metabolized

$$$$
>  <compound>
O=C1C(CC[S+]([O-])c2ccccc2)C(=O)N(c2ccccc2)N1c1ccccc1 (stereo not drawn)

>  <Bacterial Biotransformation>
Compound metabolized

$$$$
>  <compound>
COc1ccnc(C[S+]([O-])c2nc3ccc(OC(F)F)cc3[nH]2)c1OC (stereo not drawn)

>  <Bacterial Biotransformation>
Compound metabolized

$$$$
>  <compound>
O=C1CN2Cc3c(ccc(Cl)c3Cl)N=C2N1 [ANAGRELIDE]

>  <Bacterial Biotransformation>
Compound metabolized

$$$$
>  <compound>
COc1cc2nc(N3CCN(C(=O)C4CCCO4)CC3)nc(N)c2cc1OC (stereo not drawn)

>  <Bacterial Biotransformation>
Compound NOT metabolized

$$$$

###

Conditions: human gut metagenome, 24 h, 2 µM

>  <compound>
CC(C)(C)NCC(O)COc1cccc2c1CC(O)C(O)C2 (centres undefined)

>  <Bacterial Biotransformation>
Compound NOT metabolized

$$$$
>  <compound>
CN1CCC(OC(c2ccccc2)c2ccccc2)CC1

>  <Bacterial Biotransformation>
Compound NOT metabolized

$$$$
>  <compound>
Br.COc1ccc2c(c1)[C@]13CCCC[C@@H]1[C@H](C2)N(C)CC3.O [DEXTROMETHORPHAN HYDROBROMIDE]

>  <Bacterial Biotransformation>
Compound NOT metabolized

$$$$

###

Test: The drug is tested on Z-005 corresponding to metagenome with ENA study accession number: PRJEB37062 and ENA sample accession number: ERS12561805 for biotransformation under anaerobic condition. The drug concentrations were measured over 9 timepoints collected between 0 and 24 hours of incubation by liquid-chromatography-coupled mass spectrometry (LC–MS)
Details: 2 µM
experimental_readout: Bacterial Biotransformation

>  <compound>
CC(=O)CCCCn1c(=O)c2c(ncn2C)n(C)c1=O

>  <experimental_readout>
Bacterial Biotransformation

>  <reported_result>
Compound NOT metabolized

$$$$
>  <compound>
C#C[C@]1(OC(C)=O)CC[C@H]2[C@@H]3CCC4=C/C(=N/O)CC[C@@H]4[C@H]3CC[C@@]21CC [NORGESTIMATE]

>  <experimental_readout>
Bacterial Biotransformation

>  <reported_result>
Compound NOT metabolized

$$$$
>  <compound>
CC(C)c1c(CN(C)C(C)Cc2ccccc2)n(C)n(-c2ccccc2)c1=O (stereo not drawn)

>  <experimental_readout>
Bacterial Biotransformation

>  <reported_result>
Compound metabolized

$$$$
>  <compound>
CC12CC3CC(C)(C1)CC(N)(C3)C2 [MEMANTINE]

>  <experimental_readout>
Bacterial Biotransformation

>  <reported_result>
Compound NOT metabolized

$$$$
>  <compound>
O=C(O)CCC(=O)O.O=C(O[C@H]1CN2CCC1CC2)N1CCc2ccccc2[C@@H]1c1ccccc1 [SOLIFENACIN SUCCINATE]

>  <experimental_readout>
Bacterial Biotransformation

>  <reported_result>
Compound metabolized

$$$$
>  <compound>
CCCCCNC(=N)N/N=C/c1c[nH]c2ccc(OC)cc12.O=C(O)/C=C\C(=O)O [TEGASEROD MALEATE]

>  <experimental_readout>
Bacterial Biotransformation

>  <reported_result>
Compound NOT metabolized

$$$$
>  <compound>
COc1cc(NC(C)CCCN)c2ncccc2c1.O=P(O)(O)O.O=P(O)(O)O (stereo not drawn) [PRIMAQUINE PHOSPHATE]

>  <experimental_readout>
Bacterial Biotransformation

>  <reported_result>
Compound NOT metabolized

$$$$
>  <compound>
C[C@@H](c1ncncc1F)[C@](O)(Cn1cncn1)c1ccc(F)cc1F

>  <experimental_readout>
Bacterial Biotransformation

>  <reported_result>
Compound metabolized

$$$$

###

Details: human gut metagenome, 24 h, 2 µM

>  <compound>
CSc1ccc2c(c1)C(N1CCN(C)CC1)Cc1ccccc1S2.O=C(O)/C=C\C(=O)O (centres undefined)

>  <Bacterial Biotransformation>
Compound NOT metabolized

$$$$
>  <compound>
CCOC(=O)C1=C[C@]2(CC)CCCN3CCc4c(n1c1ccccc41)[C@@H]32

>  <Bacterial Biotransformation>
Compound metabolized

$$$$
>  <compound>
N#Cc1ccc2c(c1)N(CCCN1CCC(O)CC1)c1ccccc1S2

>  <Bacterial Biotransformation>
Compound NOT metabolized

$$$$
>  <compound>
CC(C)(C)NCC(O)c1cc(Cl)c(N)c(Cl)c1 (centres undefined)

>  <Bacterial Biotransformation>
Compound NOT metabolized

$$$$
>  <compound>
COCCCC/C(=N\OCCN)c1ccc(C(F)(F)F)cc1.O=C(O)/C=C\C(=O)O [FLUVOXAMINE MALEATE]

>  <Bacterial Biotransformation>
Compound NOT metabolized

$$$$
>  <compound>
CC(=O)Oc1ccc(C(c2ccc(OC(C)=O)cc2)c2ccccn2)cc1

>  <Bacterial Biotransformation>
Compound metabolized

$$$$
>  <compound>
O=C(CCCN1CCC2(CC1)C(=O)NCN2c1ccccc1)c1ccc(F)cc1

>  <Bacterial Biotransformation>
Compound NOT metabolized

$$$$
>  <compound>
C[C@]12C=CC(=O)C=C1CC[C@@H]1[C@@H]2C(=O)C[C@@]2(C)[C@H]1CC[C@]2(O)C(=O)CO

>  <Bacterial Biotransformation>
Compound metabolized

$$$$
>  <compound>
CC(C)(C)NCC(O)COc1cccc2c1CC(O)C(O)C2 (centres undefined)

>  <Bacterial Biotransformation>
Compound NOT metabolized

$$$$

###

Conditions: human gut metagenome, 24 h, 2 µM

>  <compound>
N#Cc1ccc2[nH]cc(CCCCN3CCN(c4ccc5oc(C(N)=O)cc5c4)CC3)c2c1

>  <Bacterial Biotransformation>
Compound metabolized

$$$$
>  <compound>
OC(c1cc(C(F)(F)F)nc2c(C(F)(F)F)cccc12)C1CCCCN1 (configuration not stated)

>  <Bacterial Biotransformation>
Compound NOT metabolized

$$$$
>  <compound>
Br.CN1CCC[C@@H]1Cc1c[nH]c2ccc(CCS(=O)(=O)c3ccccc3)cc12 [ELETRIPTAN HYDROBROMIDE]

>  <Bacterial Biotransformation>
Compound NOT metabolized

$$$$
>  <compound>
CN(CCOc1ccc(CC2SC(=O)NC2=O)cc1)c1ccccn1.O=C(O)/C=C\C(=O)O (configuration not stated) [ROSIGLITAZONE MALEATE]

>  <Bacterial Biotransformation>
Compound NOT metabolized

$$$$
>  <compound>
CCN(CC)CCOC(=O)C1(C2CCCCC2)CCCCC1

>  <Bacterial Biotransformation>
Compound NOT metabolized

$$$$
>  <compound>
CC(C)(C)NC(=O)[C@H]1CC[C@H]2[C@@H]3CC[C@H]4NC(=O)C=C[C@]4(C)[C@H]3CC[C@]12C [FINASTERIDE]

>  <Bacterial Biotransformation>
Compound metabolized

$$$$
>  <compound>
O=C(NC(Cc1cc(=O)[nH]c2ccccc12)C(=O)O)c1ccc(Cl)cc1 (configuration not stated) [REBAMIPIDE]

>  <Bacterial Biotransformation>
Compound metabolized

$$$$
